Measurement target: Bombesin receptor subtype-3 (Mus musculus, UniProt O54798)
Sequence (O54798 whole entry): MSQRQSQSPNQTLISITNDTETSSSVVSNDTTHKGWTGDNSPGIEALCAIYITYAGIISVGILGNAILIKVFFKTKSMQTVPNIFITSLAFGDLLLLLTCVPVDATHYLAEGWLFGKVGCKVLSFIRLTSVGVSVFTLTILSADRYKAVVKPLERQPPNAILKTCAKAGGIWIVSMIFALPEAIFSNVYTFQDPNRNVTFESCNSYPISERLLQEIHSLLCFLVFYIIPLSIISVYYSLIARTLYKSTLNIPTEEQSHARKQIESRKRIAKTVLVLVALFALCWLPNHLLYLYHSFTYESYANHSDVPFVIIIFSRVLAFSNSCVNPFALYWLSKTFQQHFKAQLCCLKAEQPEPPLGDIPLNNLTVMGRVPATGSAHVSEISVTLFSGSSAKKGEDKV
Assay procedure: Agonist activity at mouse BRS-3 expressed in HEK293 cells coexpressing AEQ over 10 mins by aequorin bioluminescence assay
pEC50: −log10 of the molar value.
Is pEC50 at least 8? Then Fulfilled. If not, Not fulfilled.

# Substance smiles, Measurement target, Label
data = [
    ("CCC(C)(C)Cc1cnc(CCc2ccc(-c3cccc(C#N)n3)cc2)[nH]1", "Bombesin receptor subtype-3 (Mus musculus, UniProt O54798)", "Not fulfilled"),
    ("CCC(C)(C)Cc1c[nH]c(CCc2ccc(-c3cccc(N)n3)cc2)n1", "Bombesin receptor subtype-3 (Mus musculus, UniProt O54798)", "Fulfilled"),
]

###

The entries below are paired with their reported EC50.
Measurement target: Bombesin receptor subtype-3 (Mus musculus, UniProt O54798)
Assay procedure: Agonist activity at mouse BRS-3 expressed in HEK293 cells coexpressing AEQ over 10 mins by aequorin bioluminescence assay
Readout kind: EC50 (nM)

# Substance smiles, Readout kind, Experimental value
rows = [
    ("CCC(C)(C)Cc1c[nH]c(CCc2ccc(-c3ccns3)cc2)n1", "EC50", 3.1),
    ("CCC(C)(C)Cc1c[nH]c(CCc2ccc(-c3cccc(C)n3)cc2)n1", "EC50", 19),
    ("CCC(C)(C)Cc1cnc(CCc2ccc(-c3cccnc3)cc2)[nH]1", "EC50", 4.3),
    ("CCC(C)(C)Cc1cnc(CCc2ccc(-c3csnn3)cc2)[nH]1", "EC50", 11),
]

###

Measurement target: Bombesin receptor subtype-3 (Homo sapiens, UniProt P32247)
Sequence (P32247 whole entry): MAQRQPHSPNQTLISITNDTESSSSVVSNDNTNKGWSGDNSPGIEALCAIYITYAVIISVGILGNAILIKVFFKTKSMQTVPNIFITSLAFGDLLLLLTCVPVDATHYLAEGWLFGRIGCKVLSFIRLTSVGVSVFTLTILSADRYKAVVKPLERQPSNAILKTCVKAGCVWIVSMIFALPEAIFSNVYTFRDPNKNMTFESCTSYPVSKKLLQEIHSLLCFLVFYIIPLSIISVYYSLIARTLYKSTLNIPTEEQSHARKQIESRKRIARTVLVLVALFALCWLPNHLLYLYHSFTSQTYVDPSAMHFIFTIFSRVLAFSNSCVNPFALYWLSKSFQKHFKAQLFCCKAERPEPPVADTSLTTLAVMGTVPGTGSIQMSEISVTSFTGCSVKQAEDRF
Assay procedure: biochemical
Description: Displacement of [125I]D-Tyr6-betaAla11-Phe13-Nle14-bombesin from human BRS-3 expressed in NFAT-CHO cells after 2 hrs by scintillation counting
log10 of IC50 listing for selected compounds.
Readout kind: log10 of IC50 (log10 of the value in nM)

# Substance smiles, log10 of IC50
data = [
    ("CCC(C)(C)Cc1cnc(CCc2ccc(-n3cncn3)cc2)[nH]1", 2.53),
    ("O=C(O)c1cc(F)c(F)cc1-c1ccc(CCc2nc(CC3CCCCC3)c[nH]2)cc1", 1.56),
    ("CCC(C)(C)Cc1cnc(CCc2ccc(-c3cccnc3C(=O)O)cc2)[nH]1", 2.75),
    ("CCC(C)(C)Cc1cnc(CCc2ccc(-c3ccncc3)cc2)[nH]1", 2.00),
    ("CCC(C)(C)Cc1cnc(CCc2ccc(N3CCCCC3)cc2)[nH]1", 1.45),
    ("CCC(C)(C)Cc1cnc(CCc2ccc(-c3cccc(C#N)n3)cc2)[nH]1", 2.15),
    ("CCC(C)(C)Cc1c[nH]c(CCc2ccc(-c3cccc(N)n3)cc2)n1", 0.86),
    ("CCC(C)(C)Cc1c[nH]c(CCc2ccc(-c3ccccc3C(=O)O)cc2)n1", 1.04),
    ("CCC(C)(C)Cc1cnc(CCc2ccc(-c3ccc(F)cn3)cc2)[nH]1", 1.28),
    ("CCC(C)(C)Cc1cnc(CCc2ccc(-c3cnsc3)cc2)[nH]1", 1.00),
    ("CCC(C)(C)Cc1cnc(CCc2ccc(-n3ccnn3)cc2)[nH]1", 2.59),
    ("CCC(C)(C)Cc1c[nH]c(CCc2ccc(-c3cnccn3)cc2)n1", 1.71),
    ("c1ccc(-c2ccc(CCc3nc(CC4CCCC4)c[nH]3)cc2)nc1", 2.25),
    ("CCC(C)(C)Cc1c[nH]c(CCc2ccc(-c3ccns3)cc2)n1", 1.04),
    ("CCC(C)(C)Cc1c[nH]c(CCc2ccc(-c3cccc(O)n3)cc2)n1", 1.71),
    ("CCC(C)(C)Cc1c[nH]c(CCc2ccc(-n3ncnn3)cc2)n1", 2.31),
    ("CCC(C)(C)Cc1cnc(CCc2ccc(-c3cccnc3)cc2)[nH]1", 0.88),
    ("CCC(C)(C)Cc1c[nH]c(CCc2ccc(-c3cccc(C(=O)O)n3)cc2)n1", 3.45),
    ("CCC(C)(C)Cc1cnc(CCc2ccc(-c3csnn3)cc2)[nH]1", 1.65),
]
